Target: TcPKr-C (Tribolium castaneum)
Sequence (A0ACM8QKC4 1-483): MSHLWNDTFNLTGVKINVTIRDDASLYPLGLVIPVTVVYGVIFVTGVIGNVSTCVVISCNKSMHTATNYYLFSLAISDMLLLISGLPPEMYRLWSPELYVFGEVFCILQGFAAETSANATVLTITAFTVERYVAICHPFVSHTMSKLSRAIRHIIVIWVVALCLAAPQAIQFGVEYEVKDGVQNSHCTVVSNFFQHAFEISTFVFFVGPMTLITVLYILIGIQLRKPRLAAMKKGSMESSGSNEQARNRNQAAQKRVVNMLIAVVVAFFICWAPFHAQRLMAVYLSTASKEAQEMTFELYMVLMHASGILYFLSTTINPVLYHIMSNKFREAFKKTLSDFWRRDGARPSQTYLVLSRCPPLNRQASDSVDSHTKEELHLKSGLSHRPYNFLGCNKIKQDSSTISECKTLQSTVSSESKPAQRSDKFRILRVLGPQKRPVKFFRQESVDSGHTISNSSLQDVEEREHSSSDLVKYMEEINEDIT
Test: Aequorin luminescence (calcium mobilization) assay, CHO cells transiently expressing TcPKr-C
Type: cell-based
Details: EC50 (bound given in μM), Fig. 3; above highest tested concentration 10 μM
Where no end group is shown, it is not given here.
QUANTITY MEASURED: EC50

Record excerpt, results attached:
[[record]]
substance = "ENYVLKAAKNVPRI-NH2 [ETH-1]"
experimental_value = "> 10 µM"

[[record]]
substance = "NKLASVYALTPSLRV-NH2 [CAPA-1]"
experimental_value = "> 10 µM"

[[record]]
substance = "FFMKASKSVPRI-NH2 [ETH-2]"
experimental_value = "> 10 µM"


Measured EC50, PGANSGGMWFGPRL-NH2 [PK1/DH-1] : > 10 µM

Measured EC50, RIGKMVSFPRI-NH2 [CAPA-2] : > 10 µM
